# Tested on: MLE-12 cells
# Protocol Description: Cell death protective effect in lung epithelial cells against RSL3 (LDH)
# Format: cell-based, rat
# Details: MLE-12, RSL3, 1 μM; compound 0.03 μM; 24 h
Returns one of criterion met or criterion not met; criterion met when inhibition (%) is >= 80%.

Reference set, count: 2
# Molecule, Label Class
data = [
    ("COCc1cc(NC2CC[S+]([O-])CC2)c2[nH]c(-c3ccccc3)cc2c1 (centres unmarked)", "criterion not met"),
    ("COCc1cc(NC2CCCC2)c2[nH]c(-c3ccccc3)cc2c1", "criterion met"),
]

input: Kindly determine if inhibition (%) recorded for CCOC(=O)c1ccc(NC2CCCCC2)c(N)c1 [Ferrostatin-1, reference compound] is above or exactly 80%.
output: criterion not met

input: Consider next the molecule `COCCc1cc(NC2CCOCC2)c2[nH]c(-c3ccccc3)cc2c1` in the same way.
output: criterion met
